Measured values drawn from patent US20240317847A1 for this set.

tested on: T1, murine IL-11 (mouse, UniProt P47873 22-199)
T1 sequence: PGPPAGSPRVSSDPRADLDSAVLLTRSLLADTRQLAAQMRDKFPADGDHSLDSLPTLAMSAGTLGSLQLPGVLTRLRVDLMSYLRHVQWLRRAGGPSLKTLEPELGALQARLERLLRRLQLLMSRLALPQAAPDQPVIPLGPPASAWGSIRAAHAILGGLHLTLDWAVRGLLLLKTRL
method notes: cell-based or functional assay
property measured: RGA Efficacy (%)
Numbers only, in %.

Sample records with RGA Efficacy (%):
| binder | measurement units | RGA Efficacy (%) |
| --- | --- | --- |
| TPP-26310 (antibody, V domains shown) VH: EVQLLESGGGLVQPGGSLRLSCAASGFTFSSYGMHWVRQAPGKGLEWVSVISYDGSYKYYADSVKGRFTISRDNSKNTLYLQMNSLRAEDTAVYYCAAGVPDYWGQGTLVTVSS VL: QSVLTQPPSASGTPGQRVTISCTGSSSNIGAGYDVHWYQQLPGTAPKLLIYSNNERPWGVPDRFSGSKSGTSASLAISGLRSEDEADYYCAAWDDSLNGPVFGGGTKLTVL | % | 94.3 |
| TPP-26331 (antibody, V domains shown) VH: EVQLLESGGGLVQPGGSLRLSCAASGFTFSSYGGHWVRQAPGKGLEWVSVISYDGSYKYYADSVKGRFTISRDNSKNTLYLQMNSLRAEDTAVYYCAAGVPDYWGQGTLVTVSS VL: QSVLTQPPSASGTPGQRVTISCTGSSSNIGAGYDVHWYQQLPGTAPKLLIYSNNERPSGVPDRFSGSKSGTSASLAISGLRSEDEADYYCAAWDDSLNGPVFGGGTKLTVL | % | 90.9 |

query: Could you tell me which RGA Efficacy (%) is on file for TPP-26296 (antibody, V domains shown) VH: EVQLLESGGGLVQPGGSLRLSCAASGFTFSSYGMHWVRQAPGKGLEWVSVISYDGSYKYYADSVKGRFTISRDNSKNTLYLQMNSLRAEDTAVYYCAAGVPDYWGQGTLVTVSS VL: QSVLTQPPSASGTPGQRVTISCTGSSSNIGAGYDVHWYQQLPGTAPKLLIYSNNERPSGVPDRFSGSKSGTSASLAISGLRSEDEADYYCAAWDNSLNGPVFGGGTKLTVL ?
result: 93.1
